Listed below: cell count values for each entry.
Protocol Description: viability loss with induced miR-34 in A549 – imaging, A549 dox-inducible miR-34, nuclei and caspase counts, primary screen (AID 1347080); note: test concentration not given here
Test Conditions: A549 miR-34 inducible, Hoechst nuclei count, 48 h; measured here: total cells without miR-34 induction

>  <Compound>
C=C1CCC(O)CC1=CC=C1CCC[C@]2(C)C(C(C)CCCC(C)C)CC[C@@H]12 (stereo not given in full)

>  <cell count>
8740

$$$$
>  <Compound>
CN(C)CCCc1cc(C(=O)Nc2ccc(-c3ccncc3)cc2)ccc1O

>  <cell count>
7450

$$$$
>  <Compound>
C[C@H]([C@H](C)N1CC(=O)NC(=O)C1)N1CC(=O)NC(=O)C1

>  <cell count>
2070

$$$$
>  <Compound>
COc1ccc(S(=O)(=O)N2CCN(S(=O)(=O)c3ccc4c(c3)OCCO4)CC2)cc1

>  <cell count>
9390

$$$$
>  <Compound>
O=C(O)c1ccc(B(O)O)cc1

>  <cell count>
9400

$$$$
>  <Compound>
CC/C=C\C/C=C\C/C=C\CCCCCCCCCCCC(=O)O

>  <cell count>
6030

$$$$
>  <Compound>
O=[N+]([O-])c1cn2c(n1)OCC(OCc1ccc(OC(F)(F)F)cc1)C2 (stereo not given)

>  <cell count>
6960

$$$$
>  <Compound>
COC(=O)C1=C(C)NC(C)=C(C(=O)OC)C1c1cccc(NC(=O)NCCCN2CCC(c3cccc(OC)c3)CC2)c1

>  <cell count>
1390

$$$$
>  <Compound>
Oc1ccc(Cn2cc[nH]c2=S)cc1

>  <cell count>
10600

$$$$
>  <Compound>
O=C(C=Cc1ccc(CN(CCO)CCc2c[nH]c3ccccc23)cc1)NO

>  <cell count>
1090

$$$$
>  <Compound>
Cn1nc(C(C)(C)C)cc1C(=O)NC(Cc1cccc(Cl)c1)C(=O)NCC#N (stereo not given)

>  <cell count>
8140

$$$$
>  <Compound>
Cc1ccccc1-n1cc(-c2ccnc(NCCC3(O)CCN(C)CC3)n2)cn1

>  <cell count>
10600

$$$$
>  <Compound>
NS(=O)(=O)c1ccc(C(=O)NCCn2cccn2)cc1

>  <cell count>
10100

$$$$
>  <Compound>
CCc1c2c(nc3ccc(OC(=O)N4CCC(N5CCCCC5)CC4)cc13)-c1cc3c(c(=O)n1C2)COC(=O)[C@@]3(O)CC

>  <cell count>
2030

$$$$
>  <Compound>
COc1cc(N)c(Cl)cc1C(=O)OCCN1CCCCC1

>  <cell count>
9550

$$$$
>  <Compound>
COC(=O)C(N)Cc1ccc(Cl)cc1 (stereo not given)

>  <cell count>
9740

$$$$
>  <Compound>
CC(C)CC(NC(=O)CNC(=O)c1cc(Cl)ccc1Cl)B(O)O (stereo not given)

>  <cell count>
1900

$$$$
>  <Compound>
CCOC(=O)C1OC1C(=O)NC(CC(C)C)C(=O)NCCC(C)C (stereo not given)

>  <cell count>
8930

$$$$
>  <Compound>
CC(C)C(NC(=O)Cc1c[nH]c2ccccc12)C(=O)O (stereo not given)

>  <cell count>
9500

$$$$
>  <Compound>
CC(OC1OCCN(Cc2n[nH]c(=O)[nH]2)C1c1ccc(F)cc1)c1cc(C(F)(F)F)cc(C(F)(F)F)c1 (stereo not given)

>  <cell count>
7950

$$$$
>  <Compound>
Cc1nn(C)c(C)c1-c1ccnc(NCCc2nc3ccc(Cl)cc3[nH]2)n1

>  <cell count>
1550

$$$$
>  <Compound>
CC12CCC3c4ccc(OC(=O)c5ccccc5)cc4CCC3C1CCC2O (stereo not given)

>  <cell count>
11600

$$$$
>  <Compound>
CC(N)(Cc1ccc(O)cc1)C(=O)O (stereo not given)

>  <cell count>
9440

$$$$
>  <Compound>
COc1ccc(C(=O)/C(Br)=C\C(=O)O)cc1

>  <cell count>
11200

$$$$
>  <Compound>
COCc1c(C(C)C)nc(C(C)C)c(C=CC(O)CC(O)CC(=O)O)c1-c1ccc(F)cc1 (stereo not given)

>  <cell count>
1140

$$$$
>  <Compound>
Cc1[nH]c2ccccc2c1CCNC(=O)c1cccs1

>  <cell count>
8570

$$$$
>  <Compound>
CCCCc1nc2cc(C=CC(=O)NO)ccc2n1CCN(CC)CC

>  <cell count>
951

$$$$
>  <Compound>
Cc1[nH]c2ccccc2c1CCNCc1ccc(C=CC(=O)NO)cc1

>  <cell count>
1160

$$$$
>  <Compound>
COc1ccc2[nH]cc(CCC(=O)O)c2c1

>  <cell count>
9460

$$$$
>  <Compound>
CN1CCc2cc(NC(=O)Nc3cccnc3)ccc21

>  <cell count>
10700

$$$$
>  <Compound>
Cc1nc(CCNC(=O)Nc2nnc(-c3cccs3)s2)sc1C

>  <cell count>
8680

$$$$
>  <Compound>
COc1cc(=C2C=c3ccccc3=N2)[nH]c1=Cc1[nH]c(C)cc1C

>  <cell count>
1620

$$$$
>  <Compound>
CCn1ncc(NC(=O)Cn2nc(C)c(-c3ccc(-n4cccn4)cc3)c2C)n1

>  <cell count>
5020

$$$$
>  <Compound>
Nc1nc(Cl)nc2c1ncn2[C@@H]1O[C@H](COP(=O)(O)OP(=O)(O)OP(=O)(O)O)[C@H](O)C1O (stereo not given in full)

>  <cell count>
2560

$$$$
>  <Compound>
Nc1ccc(CCC(=O)O)cc1

>  <cell count>
9710

$$$$
>  <Compound>
OCC(CO)NC1C[C@@](O)(CO)C(O)C(O)C1O (stereo not given in full)

>  <cell count>
10100

$$$$
>  <Compound>
CC(C)(C)[N+]([O-])=Cc1ccc(S(=O)(=O)O)cc1S(=O)(=O)O

>  <cell count>
10900

$$$$
>  <Compound>
CCC(=O)N1CCN(C(=O)c2ccccc2)CC1

>  <cell count>
9990

$$$$
>  <Compound>
CN1CCN(Cc2ccc3nonc3c2)CC1CCO (stereo not given)

>  <cell count>
10000

$$$$
>  <Compound>
O=C(Nc1n[nH]c(-c2ccco2)n1)N1CCc2ccccc2C1

>  <cell count>
8420

$$$$
>  <Compound>
CC1OC(Oc2c(-c3cc(O)c(O)c(O)c3)oc3cc(O)cc(O)c3c2=O)C(O)C(O)C1O (stereo not given)

>  <cell count>
8430

$$$$
>  <Compound>
Cc1nc(N=Nc2ccc(C(=O)O)cc2)c(COP(=O)(O)O)c(C=O)c1O

>  <cell count>
9680

$$$$
>  <Compound>
CCn1ncc(NC(=O)Cn2cc(-c3ncnc4ccsc34)cn2)n1

>  <cell count>
9620

$$$$
>  <Compound>
O=C(NCc1cccc(O)c1)Nc1nc(-c2ccncc2)cs1

>  <cell count>
3330

$$$$
>  <Compound>
CC1COC2=C1C(=O)C(=O)c1c2ccc2c1CCCC2(C)C (stereo not given)

>  <cell count>
1890

$$$$

The measured values listed here are drawn from PubChem BioAssay.
